src = paper PMC9482650

Molecular target: GORASP2, Q9H8Y8
Test: holdup assay
Design: key: below the threshold = too weak to quantify, mostly under pKd 3.1 to 4
Details: plain residues with an end cap or a label only (N-terminal biotin on a linker: ado-ado)
endpoint_name: pKd

>>> result("GEDRSPPTAL [MKNK1, Q9BUB5]")
"below the threshold"
>>> result("QSGLYESEEL [MYOT, Q9UBF9]")
"below the threshold"
>>> result("RQKEVRESKC [SCN8A, Q9UQD0]")
"below the threshold"
